Test system: NCI-H522
Experiment: NCI tumour cell line growth inhibition, 48 h
The source made the active and inactive calls. Cut-off read from the data, not from the text of the source: active = GI50 up to about 1.1 µM and inactive = higher.
Outcome codes: active, inactive

Cc1ccc(S(=O)(=O)N/N=C(\c2nc3ccc([N+](=O)[O-])cc3nc2O)C(O)c2ccccc2Cl)cc1 (centres undefined) :: inactive
O=C1OCCC1C(O)C1c2ccccc2-c2ccccc21 (centres undefined) :: inactive
CC[C@@]1(OC(=O)C(N)CCCCN)C(=O)OCc2c1cc1n(c2=O)Cc2cc3ccccc3nc2-1 (some centres undefined) :: active
NC(=O)C/C=C/CC(N)=O :: inactive

----------
Tested on: OVCAR-3
Test: NCI tumour cell line growth inhibition, 48 h
The source made the active and inactive calls. No stated cut-off is given here; in the data, active = GI50 up to about 1.1 µM and inactive = higher.
Endpoint Label: GI50

COc1ccc2c(c1)c(=O)c1c(NCCN(C)C)ccc3nnn2c31 :: 4.24 µM (inactive)
COc1cc([C@@H]2c3cc4c(cc3[C@@H](NC(=O)c3ccccc3)C3COC(=O)[C@@H]32)OCO4)cc(OC)c1O (stereo partly drawn) :: 20.8 µM (inactive)
CCOC(=O)Cn1nnc2ccc(Nc3nc4ccccc4nc3C(=O)OCC)cc21 :: > 100 µM (inactive)
COc1ccc(CN2C(=O)CCC/C=C\[C@H]2CI)cc1 :: 11.6 µM (inactive)
O=C1OCCC1C(O)C1c2ccccc2-c2ccccc21 (stereo not drawn) :: > 100 µM (inactive)
CS(=O)(=O)ON1C(=O)c2ccc(N)cc2C1=O :: > 100 µM (inactive)
N/C(CCSCCSCC/C(N)=N\O)=N\O :: > 100 µM (inactive)
O=C(O)c1ccc(Nc2nc3ccc(C(F)(F)F)cc3nc2-c2ccccc2)cc1 :: 17.9 µM (inactive)
COc1cn2c(cc1=O)COc1ccc(-c3ccccc3)cc1-2 :: > 55.7 µM (inactive)
[N-]=[N+]=NC1C(O)C(CO)OC1n1cnc2c(N)ncnc21 (stereo not drawn) :: > 100 µM (inactive)
CCOC(=O)c1csc(NC(=O)CCN(CC)CC)n1 :: 26.8 µM (inactive)
Cc1ccc(NCCN(C)C)c2c(=O)c3cc(O)ccc3oc12 :: 16.5 µM (inactive)
O=c1[nH]c2c(S)nc(O)nc2n1-c1ccccc1 :: > 100 µM (inactive)
CC1C/C(=C\c2ccc(OC(=O)C(C)(C)C)cc2)C(=O)/C(=C/c2ccc(OC(=O)C(C)(C)C)cc2)C1 (stereo not drawn) :: 68.4 µM (inactive)
CCCCC/C=C\C=C\CCCCCCCCC(=O)OC :: > 100 µM (inactive)
O=C(CCCN1CCC2(CC1)CC(=O)N(N1CCCCCC1)C2=O)c1ccccc1 :: > 100 µM (inactive)
c1ccc2c3c([nH]c2c1)[C@H]1C2CCCCN2CN1CC3 (stereo partly drawn) :: > 100 µM (inactive)
CC(/C=C/C(=O)NO)=C\C(C)C(=O)c1ccc(N(C)C)cc1 (stereo not drawn) :: 0.0119 µM (active)
COC(=O)CCSC(=O)Nc1ccccc1Cl :: > 100 µM (inactive)
O=C(CNc1ccc(Cl)cc1)Nn1c(-c2ccccc2)nc2ccccc2c1=O :: 12.1 µM (inactive)
CC#CC1/C(=C\C(=O)OC)CCCC1O (stereo not drawn) :: > 100 µM (inactive)
COc1cc2nc3n(c(=O)c2cc1OC)CCCCC3 :: > 100 µM (inactive)
Cc1cc(CCC(=O)NCCNc2c3ccccc3nc3ccccc23)cc(C)c1O[Si](C)(C)C(C)(C)C :: 1.96 µM (inactive)
CC(C)(C)n1c(=O)n2n(c1=O)C1c3cccc4cccc(c34)C2C2c3cccc4cccc(c34)C1n1c(=O)n(C(C)(C)C)c(=O)n12 :: 16.3 µM (inactive)
c1ccc([S+](c2ccccc2)c2ccc(Sc3ccc([S+](c4ccccc4)c4ccccc4)cc3)cc2)cc1 :: 10.2 µM (inactive)
CC(=O)[C@@H]1[C@@H](OC(=O)CCC(C)COC2OC(CO)C(O)C(O)C2O)C[C@H]2[C@@H]3CC=C4C[C@@H](OC5OC(CO)C(OC6OC(C)C(O)C(O)C6O)C(O)C5OC5OC(C)C(O)C(O)C5O)CC[C@]4(C)[C@H]3CC[C@]12C (stereo partly drawn) :: > 100 µM (inactive)
CCc1cc2c(c3c1CCCC3=O)CC1(Cc3ccc(C(=O)OC)cc3C1)C2 (stereo not drawn) :: > 100 µM (inactive)
O=C1C(Cl)=C(N2CCN(CCOCCO)CC2)C(=O)c2ncccc21 :: > 10 µM (inactive)
